A collection of compounds and their measured efficacy relative to NDP-α-MSH, MC3-R
Target: hMC3-R (HEK-293 cells) (Homo sapiens, UniProt P41968)
Construct: expressed in transfected cells; host or cells: HEK-293
Sequence (P41968 whole entry): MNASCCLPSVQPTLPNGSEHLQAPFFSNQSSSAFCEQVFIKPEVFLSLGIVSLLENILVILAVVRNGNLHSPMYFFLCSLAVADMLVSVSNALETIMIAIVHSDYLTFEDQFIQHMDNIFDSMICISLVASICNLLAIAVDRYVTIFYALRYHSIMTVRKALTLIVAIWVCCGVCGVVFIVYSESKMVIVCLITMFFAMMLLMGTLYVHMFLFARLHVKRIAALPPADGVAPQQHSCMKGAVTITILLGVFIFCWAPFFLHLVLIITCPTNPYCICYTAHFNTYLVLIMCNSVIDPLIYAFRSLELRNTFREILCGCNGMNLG
Assay: cAMP functional assay for agonist/antagonist status, MC3-R
Type: cell-based
Settings: cAMP response ratio to NDP-α-MSH
Where a SMILES comes first, the peptide text is derived from it. Bridges are numbered along the chain shown (N, C = ends). [ ]: non-standard residue; d: D form. 1Nal = N[C@@H](Cc1cccc2ccccc12)C(=O)O; Nle = CCCC[C@H](N)C(=O)O
Answer as a number with no unit attached.

Examples with their reported efficacy relative to NDP-α-MSH, MC3-R follow.
* CCCC[C@H](NC(C)=O)C(=O)N[C@H]1CC(=O)NCCCC[C@@H](C(=O)NCC)NC(=O)[C@H](Cc2cccc3ccccc23)NC(=O)[C@H](CCCNC(=N)N)NC(=O)[C@@H](Cc2ccccc2)NC(=O)[C@H](Cc2c[nH]c3ccccc23)NC1=O [Example 18] (Ac-[Nle]DW[dF]R[1Nal]K-NHEt; lactam 2-7 (inferred)) | 0.2
* CCCC[C@H](NC(C)=O)C(=O)N[C@H]1CC(=O)NCCCC[C@@H](C(=O)NCC)NC(=O)[C@H](Cc2cccc3ccccc23)NC(=O)[C@H](CCCNC(=N)N)NC(=O)[C@@H](Cc2ccccc2)NC(=O)[C@H](Cc2c[nH]cn2)NC1=O | 1.0

Value lookup for efficacy relative to NDP-α-MSH, MC3-R; key = CCNC(=O)[C@@H]1CCCCNC(=O)C[C@H](NC(C)=O)C(=O)N[C@@H](Cc2c[nH]cn2)C(=O)N[C@H](Cc2ccccc2)C(=O)N[C@@H](CCCNC(=N)N)C(=O)N[C@@H](Cc2cccc3ccccc23)C(=O)N1 [Example 16] (Ac-DH[dF]R[1Nal]K-NHEt; lactam 1-6 (inferred))
0.8

====

Target: MC4-R (Homo sapiens)
Construct: expressed in transfected cells; host or cells: HEK-293
Sequence (P32245 whole entry): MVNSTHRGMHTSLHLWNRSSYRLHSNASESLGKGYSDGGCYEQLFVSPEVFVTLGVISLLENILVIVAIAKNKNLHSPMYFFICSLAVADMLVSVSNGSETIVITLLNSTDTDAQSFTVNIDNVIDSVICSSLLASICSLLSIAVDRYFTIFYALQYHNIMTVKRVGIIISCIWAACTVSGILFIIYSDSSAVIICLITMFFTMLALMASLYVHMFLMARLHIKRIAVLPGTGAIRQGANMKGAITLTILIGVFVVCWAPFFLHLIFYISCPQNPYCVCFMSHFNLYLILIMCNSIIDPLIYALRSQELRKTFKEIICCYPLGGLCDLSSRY
Assay: Competitive inhibition Ki (AgRP), MC4-R
Assay type: binding
Conditions: AgRP as competing ligand
Where a SMILES comes first, the peptide text is derived from it. Bridges are numbered along the chain shown (N, C = ends). [ ]: non-standard residue; d: D form. 1Nal = N[C@@H](Cc1cccc2ccccc12)C(=O)O
measured.parameter: Ki (µM)

• CCNC(=O)[C@@H]1CCCCNC(=O)C[C@H](NC(C)=O)C(=O)N[C@@H](Cc2c[nH]c3ccccc23)C(=O)N[C@H](Cc2ccccc2)C(=O)N[C@@H](CCCNC(=N)N)C(=O)N[C@@H](Cc2cccc3ccccc23)C(=O)N1 [Example 14] (Ac-DW[dF]R[1Nal]K-NHEt; lactam 1-6 (inferred)) = 0.071

I = CCCC[C@H](NC(C)=O)C(=O)N[C@H]1CC(=O)NCCCC[C@@H](C(=O)N(C)C)NC(=O)[C@H](Cc2cccc3ccccc23)NC(=O)[C@H](CCCNC(=N)N)NC(=O)[C@@H](Cc2ccccc2)NC(=O)[C@H](Cc2c[nH]cn2)NC1=O
II = CCCC[C@H](NC(C)=O)C(=O)N[C@H]1CC(=O)NCCCC[C@@H](C(=O)NCC)NC(=O)[C@H](Cc2cccc3ccccc23)NC(=O)[C@H](CCCNC(=N)N)NC(=O)[C@@H](Cc2ccccc2)NC(=O)[C@H](Cc2c[nH]cn2)NC1=O
III = CC(=O)N[C@H]1CC(=O)NCCCC[C@@H](C(=O)N(C)C)NC(=O)[C@H](Cc2c[nH]c3ccccc23)NC(=O)[C@H](CCCNC(=N)N)NC(=O)[C@@H](Cc2ccccc2)NC(=O)[C@H](Cc2c[nH]cn2)NC1=O
# ascending order, key=Ki Hello, could you send the labels back in the order asked? Thank you.
II, I, III

FYI, the data here is from patent US8247530B2.
